Target: Human FXRα Ligand Binding Domain (FXRα LBD) (Homo sapiens)
Construct: polyhistidine (N); made in house; host or cells: E. coli BL21 (DE3), pRSET-A vector
Experiment: FXR Affinity Binding Assay: ligand mediated cofactor peptide (SRC-1 LCD2, 676-700) interaction, time resolved fluorescence
Settings: FXRα LBD-APC / europium labeled SRC-1 peptide, TRF signal, at least 2 hours at room temperature; read-out: Activity (pEC50) (converted)
Listed here are compounds together with their documented EC50.

Consider the worked cases shown below.
1. CCc1onc(Cc2c(Cl)cccc2Cl)c1COc1ccc(N(C)S(=O)(=O)c2cccc(C(=O)O)c2)c(C)c1 | 102 to 1000 nM
2. CC(C)c1onc(-c2c(Cl)cccc2Cl)c1COc1ccc(NC(=O)c2ccc(C(=O)O)cc2)c(Cl)c1 | 102 to 1000 nM
3. COC(=O)c1ccc(S(=O)(=O)N(C)c2ccc(OCc3c(-c4c(Cl)cccc4Cl)noc3C(C)C)cc2)cc1 | 1020 to 10000 nM

Lab note: next compound to report on.
If you can, please state the reported EC50 value of Cc1cc(OCc2c(-c3c(Cl)cccc3Cl)noc2C(C)C)ccc1N(C)Cc1ccc2nonc2c1 .
102 to 1000 nM

----------
Target: Human FXRα Ligand Binding Domain (FXRα LBD) (Homo sapiens, UniProt Q96RI1)
Construct: polyhistidine (N); made in house; host or cells: E. coli BL21 (DE3), pRSET-A vector
Sequence (Q96RI1 236-486): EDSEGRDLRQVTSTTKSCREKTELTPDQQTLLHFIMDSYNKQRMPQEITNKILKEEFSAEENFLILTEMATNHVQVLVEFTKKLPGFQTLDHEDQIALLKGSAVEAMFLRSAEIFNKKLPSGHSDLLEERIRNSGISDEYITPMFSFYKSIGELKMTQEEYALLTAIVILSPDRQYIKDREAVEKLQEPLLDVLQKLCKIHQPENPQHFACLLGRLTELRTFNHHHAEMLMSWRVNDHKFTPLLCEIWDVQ
Test: FXR Affinity Binding Assay: ligand mediated cofactor peptide (SRC-1 LCD2, 676-700) interaction, time resolved fluorescence
Details: FXRα LBD-APC / europium labeled SRC-1 peptide, TRF signal, at least 2 hours at room temperature; read-out: Activity (pEC50) (converted)
Listed here are compounds together with their documented EC50.

Consider the worked cases shown below.
1) COC(=O)c1cccc(COc2ccc(OCc3c(-c4c(Cl)cccc4Cl)noc3C(C)C)cc2Cl)c1 [Example 99] | 1020 to 10000 nM
2) Cc1cc(OCc2c(-c3c(Cl)cccc3Cl)noc2C(C)C)ccc1N(C)Cc1ccc(C(=O)O)o1 [Example 4] | 102 to 1000 nM
3) CC(C)c1onc(-c2c(Cl)cccc2Cl)c1COc1ccc(N(C)S(=O)(=O)c2cccc(C(=O)O)c2)cc1 [Example 49] | 102 to 1000 nM

Lab note: next compound to report on.
If you can, please state the reported EC50 value of CC(C)c1onc(-c2c(Cl)cccc2Cl)c1COc1ccc(OCc2cccc(C(=O)O)c2)c(Cl)c1 [Example 101] .
102 to 1000 nM

----------
Molecular target: Human FXRα Ligand Binding Domain (FXRα LBD) (Homo sapiens)
Construct: polyhistidine (N); made in house; host or cells: E. coli BL21 (DE3), pRSET-A vector
Test: FXR Affinity Binding Assay: ligand mediated cofactor peptide (SRC-1 LCD2, 676-700) interaction, time resolved fluorescence
Conditions: FXRα LBD-APC / europium labeled SRC-1 peptide, TRF signal, at least 2 hours at room temperature; read-out: Activity (pEC50) (converted)
OUTCOME_MEASURE: EC50

Consider the worked cases shown below.
1) CC(C)c1onc(-c2c(Cl)cccc2Cl)c1COc1ccc(COc2cccc(C(=O)O)c2)c(Cl)c1 | < 100 nM
2) COC(=O)c1ccc(CN(C)c2ccc(OCc3c(-c4ccccc4OC(F)(F)F)noc3C(C)C)cc2C)o1 | < 100 nM
3) Cc1cc(OCc2c(-c3c(Cl)cccc3Cl)noc2C(C)C)ccc1N(C)S(=O)(=O)c1ccc(C(=O)O)cc1 | 102 to 1000 nM

Lab note: next compound to report on.
If you can, please state the reported EC50 value of Cc1cc(OCc2c(-c3c(Cl)cccc3Cl)noc2C(C)C)ccc1N(C)C(=O)c1cccc(C(=O)O)c1 .
102 to 1000 nM
